Test system: SNB-19
EXPERIMENT DESCRIPTION: NCI tumour cell line growth inhibition, 48 h
The source made the active and inactive calls. Cut-off read from the data, not from the text of the source: active = GI50 up to about 1.1 µM and inactive = higher.
VALUE TYPE: GI50

COMPOUND	REPORTED
COC(=O)C(C(=O)C(=O)Nc1ccc(OC)cc1[N+](=O)[O-])c1nc2cc(C)c(C)cc2nc1O (stereo not drawn)	> 100 µM (inactive)
Cc1nnc(N)s/c1=N/O	> 100 µM (inactive)

Proceed to the following item.
Q: What reported GI50 corresponds to CC(=O)NC(Cc1ccccc1)NC(=O)O (stereo not drawn) on SNB-19?
Ans: > 100 µM (inactive)

---

Tested on: HOP-92
EXPERIMENT DESCRIPTION: NCI tumour cell line growth inhibition, 48 h
The source made the active and inactive calls. Cut-off read from the data, not from the text of the source: active = GI50 up to about 1.1 µM and inactive = higher.
Bench note: report the call from active, inactive

COMPOUND	ASSAYED SYSTEM	CATEGORY LABEL
O=C(CN1CCN(Cc2ccccc2)CC1)N1CCCn2c1nc1ccccc1c2=O	HOP-92	inactive
CC(=O)OC1OC(C2c3cccc(O)c3C(=O)c3c(O)cc(CO)cc32)C(O)C(O)C1O (configuration not stated)	HOP-92	inactive

Q: How did this test come out for CC(=O)c1cc2c(s1)C(=O)c1scc(C(C)=O)c1C2=O ?
Ans: active

Q: What do we get for O=C1c2ccccc2-c2nc(/C=C/c3ccccc3)cc3c2c1nc1ccccc13 ?
Ans: inactive

Q: Also CN(/N=C(\C(=O)O)c1ccccc1)C1=NCCCCN1 , if possible.
Ans: inactive

Q: Ok, now CC(C)(C)c1cc(C(C)(C)C)c2sc(=S)oc2c1O
Ans: inactive

Q: Again, but for CCCCCCCCCCSC(=O)NC
Ans: inactive

Q: Also ClC1=C(Cl)C(Cl)(Cl)SS1 ?
Ans: inactive

Q: // next record COc1cc2c3c(c1OC)Oc1ccc(cc1)CC1c4c(cc(OC)c(OC)c4Oc4ccc(cc4)CC3N(C)CC2)CCN1C (configuration not stated)
Ans: inactive

Q: Quick one: O=[N+]([O-])c1cccc(Cl)c1Oc1ccc(S(=O)(=O)N/C(=N\O)Nc2ccc(Cl)cc2)cc1
Ans: inactive

Q: Request: C=C1C(=O)OC2/C=C(\C)C3OC3/C=C(/C(=O)OC)C(OC(C)=O)C(OC(=O)C(C)(O)C(C)OC(C)=O)C12 (configuration not stated)
Ans: inactive

---

Test system: MDA-MB-231
EXPERIMENT DESCRIPTION: NCI tumour cell line growth inhibition, 48 h
Calls of active or inactive are those of the source. Rule as the data show it: active = GI50 up to about 1.1 µM and inactive = higher.
VALUE TYPE: GI50

Worked cases, GI50 given:
COMPOUND	GI50
Cc1ccc2c(O)cc(-c3cccs3)nc2n1	> 72.6 µM (inactive)
Cc1c2c(c(C)c3c4c(oc13)CCCC4)C=NCC2	16.4 µM (inactive)
Cc1nc(Cl)c(Cl)c(Cl)n1	0.276 µM (active)
O=C(O)c1c2c(cc3c1CC1(Cc4cc5c(cc4C1=O)CCC5)C3)CCC2 (stereo not given)	> 100 µM (inactive)

With those in mind, consider the next compound.
Q: // lookup GI50 for COc1cc(O)c2c(=O)c(O)c(-c3ccc(O)c(OC)c3)oc2c1 [RHAMNAZIN]
Ans: 5.57 µM (inactive)

---

System: TK-10
EXPERIMENT DESCRIPTION: NCI tumour cell line growth inhibition, 48 h
Calls of active or inactive are those of the source. No stated cut-off is given here; in the data, active = GI50 up to about 1.1 µM and inactive = higher.
VALUE TYPE: GI50

COMPOUND	GI50
Cc1c(C)c(S(=O)(=O)N(CCCCN)OCCCN)c(C)c2c1OC(C)(C)CC2	14.5 µM (inactive)
CCC1(c2c(F)c(F)c(N)c(F)c2F)CCC(=O)NC1=O (stereo not given)	> 100 µM (inactive)

Q: Test system TK-10; read-out GI50; what value for O=C1C(=O)N(c2ccc(Cl)c(Cl)c2)C(=O)C(=O)C1c1nc2ccccc2o1 ?
Ans: > 100 µM (inactive)

Q: Repeat for the following compound: c1ccc(SCCCC(Sc2ccccc2)Sc2ccccc2)cc1
Ans: > 100 µM (inactive)

Q: Same read-out for CC(=O)OCC1OC(N2C(=O)/C(=C\c3ccc(Cl)cc3)C(N)=Nc3ccccc32)C(OC(C)=O)C(OC(C)=O)C1OC(C)=O (stereo not given) ?
Ans: 28.1 µM (inactive)

---

Parameter: GI50. Scope: all listed entries.
Tested on: SNB-19
EXPERIMENT DESCRIPTION: NCI tumour cell line growth inhibition, 48 h
Calls of active or inactive are those of the source. Cut-off read from the data, not from the text of the source: active = GI50 up to about 1.1 µM and inactive = higher.

Q: // GI50 lookup, key: CC(C)(C)c1cc(C(C)(C)C)c2sc(=S)oc2c1O
Ans: 12.7 µM (inactive)

Q: Quick one: N#CCC(=O)N/N=C1/C(=O)N(c2cc(Cl)ccc2Cl)C(=O)C(=O)C1c1nc2ccccc2s1 (stereo not given)
Ans: 64.3 µM (inactive)

Q: Same for CS(=O)(=O)c1ccc(/C=N/NC(N)=S)cc1
Ans: > 100 µM (inactive)

Q: Lookup CC(=O)N(CCc1ccccc1)C(C#N)c1ccccc1 (stereo not given)
Ans: > 100 µM (inactive)

Q: Same read-out for Nc1nc(O)c2c(n1)NCN(c1ccc(S(N)(=O)=O)cc1)C2 ?
Ans: > 100 µM (inactive)

---

# GI50 per record follows
Tested on: NCI-H460
EXPERIMENT DESCRIPTION: NCI tumour cell line growth inhibition, 48 h
Active and inactive are the calls of the source. Rule as the data show it: active = GI50 up to about 1.1 µM and inactive = higher.

Here's what some known entries look like.
COMPOUND	GI50
Cc1ccc(C(=O)N/N=C(\N=N\c2cccc(C)c2)c2ccc(N(CCC#N)CCC#N)cc2C)cc1	52.7 µM (inactive)
O=C(CC(=O)Nc1cccc(C(=O)O)c1)Nc1cccc(C(=O)O)c1	> 100 µM (inactive)
CCOC(=O)C(Cc1ccc2c(c1)CCC2)(Cc1ccc2c(c1)CCC2)C(=O)OCC	51.3 µM (inactive)
CC(C)(C)C(=O)C(C(=O)c1ccccc1)C(=O)C(C)(C)C	> 100 µM (inactive)
CCOC(=O)c1cnc(N(C)C)nc1SC(=N)N	> 100 µM (inactive)
COc1cccc2c1C1(O)C2CCCCCCCCCC12OCCCO2 (configuration not stated)	6.25 µM (inactive)

Q: Consider the compound shown here: C=C1CCN2CC[C@@H](OC(=O)/C(C)=C\C)[C@@H]12 What is its recorded GI50?
Ans: > 100 µM (inactive)

Q: Queued: CCCCCCCCCCCCCCCCCC(=O)O[C@H](COC(=O)CCCCCCCCCCC)COC(=O)CCCCCCCCCCCCCCC
Ans: > 100 µM (inactive)

---

System: SF-539
EXPERIMENT DESCRIPTION: NCI tumour cell line growth inhibition, 48 h
Activity calls are given as the source filed them. No stated cut-off is given here; in the data, active = GI50 up to about 1.1 µM and inactive = higher.
One label from this list, please: 1 = active, 0 = inactive

Here's what some known entries look like.
MOLECULE	CATEGORY LABEL
NC1=C(N2CCCCC2)C(=O)NC2=N/C(=C\c3ccco3)C(=O)N21	0
NC1=NN(c2ccccc2)C(=O)C1C(=O)CCC(=O)Nc1cccc(C(F)(F)F)c1 (centres undefined)	0
CCOC(=O)NC(Nc1ccc(C(=O)O)cc1)(C(F)(F)F)C(F)(F)F	0
O=C(O)/C=C/c1ccc(OS(=O)(=O)O)cc1	0
CC(=O)OCC1OC(OC2CC3C(C)(C)C(OC(C)=O)CC[C@]3(C)C3CCC45CC4(CCC5[C@@H](C)C[C@H](O)C(O)C(C)(C)O)[C@]23C)C(O)C(O)C1O (some centres undefined)	0
C/C=C(\C)[C@@H](O)C(=O)O[C@@H]1CC(C(C)(C)O)[C@](C)(CCC(=O)OC)[C@H]2[C@H](OC(=O)[C@H](O)[C@H](C)CC)C[C@]3(C)C(=CC[C@H]3[C@H]3CO[C@H](C=C(C)C)C3)[C@]12C (some centres undefined)	0
CCOC(C)O[C@H]1C(=O)OCC1(C)C (some centres undefined)	0
COc1cccc2c1C1(O)C2CCCCCCCCCC12OCCCO2 (centres undefined)	0

Q: Please share the test call associated with COc1cc(C(=O)O)ccc1OS(=O)(=O)O .
Ans: 0

Q: Ok, now CCOC(=O)C(Cc1ccc2c(c1)CCC2)(Cc1ccc2c(c1)CCC2)C(=O)OCC
Ans: 0

Q: Then COc1ccc2oc(S(=O)(=O)N3CC(CCl)c4ccc(N)cc43)cc2c1 (centres undefined) ?
Ans: 1

---

Tested on: SF-268
EXPERIMENT DESCRIPTION: NCI tumour cell line growth inhibition, 48 h
The source made the active and inactive calls. Cut-off read from the data, not from the text of the source: active = GI50 up to about 1.1 µM and inactive = higher.
Output constraint: value belongs to label 1 = active, label 0 = inactive

COMPOUND	ASSAYED SYSTEM	CATEGORY LABEL
Cc1c2cnccc2c(C)c2c1[nH]c1ccc(O)cc12	SF-268	label 1
O=C1N2CCc3c([nH]c4ccccc34)C23CC2CCCC12S3 (stereo not given)	SF-268	label 0
O=C(Nc1nn(C(=O)c2ccc(Cl)cc2)c(=O)s1)c1ccc(Cl)cc1	SF-268	label 0
O=C1OC(c2ccc(O)c(-c3ccccc3)c2)(c2ccc(O)c(-c3ccccc3)c2)c2c(Cl)c(Cl)c(Cl)c(Cl)c21	SF-268	label 0

# evaluate next
Q: Record request — test call for CN1CCCC2(CCCc3ccccc32)C1 (stereo not given)
Ans: label 0
